The measured values listed here are drawn from the supplement of paper PMC10567573.

Assay: protein stability index of a GFP-peptide fusion (GPS, HEK-293T) (PSI 1-6); higher = more stable;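 note: 24-mer peptide tiles fused after GFP, lentivirally expressed, FACS-sorted into six equal bins by GFP/DsRed ratio, decoded by Illumina sequencing, PSI is the read-weighted mean bin number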
Conditions: treatment: MLN4924 1 uM, 8 h; c terminus: a fixed tail appended
Give protein stability index for every item shown.

Name the reported protein stability index value associated with the sequence TTQSAEVGAAETTLTELRRTVQSL [KRT18]
4.55

Name the reported protein stability index value associated with the sequence RYDPQTNEWRMVASMSKRRCGVGV [KLHL20]
2.75

Name the reported protein stability index value associated with the sequence KMRMGGRVDFEEFVELIGPKLREE [CABP4]
3.31

Name the reported protein stability index value associated with the sequence QPPQSQAQVPPAAPHHHHHHSHSG [PLK2]
4.64

Name the reported protein stability index value associated with the sequence DVEFLPVYHPSPEESRDPTLYANN [LPCAT4]
4.64

Name the reported protein stability index value associated with the sequence DNQWMTQINRLQKLIDRLEKKDLK [NECAB1]
3.16

Name the reported protein stability index value associated with the sequence ELTSVTAWMLCKLLDKAGVPPGVV [ALDH8A1]
2.69

Name the reported protein stability index value associated with the sequence SVMAIERCIGVTKPIFHSTKITSK [PTGFR]
2.98

Name the reported protein stability index value associated with the sequence LPRSEDDDCDDDDDDAQILPSPVQ [DRICH1]
5.53

Name the reported protein stability index value associated with the sequence KQLALDHFKKTKKMGGKDFSFRYQ [ATL3]
3.12

Name the reported protein stability index value associated with the sequence ELDRWLYHLEKQTALLGGPRRCHS [PLEKHN1]
2.17

Name the reported protein stability index value associated with the sequence LTTCTSNVAASNAKLALFYDWLFF [INTS3]
2.66

Name the reported protein stability index value associated with the sequence YSLVTHIPAGARDIQIVERKKSAD [ADAMTSL2]
4.67

Name the reported protein stability index value associated with the sequence HRFVEKPQVFVSNKINAGMYILSP [GMPPB]
2.29

Name the reported protein stability index value associated with the sequence KAAGSVSKSTQFEYAWCLVRSKYN [FIS1]
2.17

Name the reported protein stability index value associated with the sequence GSIPEFFHIMKRKFTNKEWETIRS [AASDHPPT]
2.46

Name the reported protein stability index value associated with the sequence RKRNPSRKKQHICDECGKHFSQGS [ZNF24]
4.12

Name the reported protein stability index value associated with the sequence ITVKNLRMAIGYLHSHRHLYPEGI [POMT2]
2.88

Name the reported protein stability index value associated with the sequence KVLLDCGADPDSRDFDNNTPLHIA [FEM1A]
4.07

Name the reported protein stability index value associated with the sequence RGTQYSSLDSLDGLSLTDESDSCV [PSD2]
5.3

Name the reported protein stability index value associated with the sequence HQDLKYISPETMVALLTGKFSNIV [CDC25B]
2.55

Name the reported protein stability index value associated with the sequence MDQLQGLGSDYEQPLEVKNNSNLQ [CDC25A]
4.85

Name the reported protein stability index value associated with the sequence TSHRRVTDVRGLEEFLSAMQSARG [PLEKHN1]
3.42

Name the reported protein stability index value associated with the sequence RAVVEAVHRLDLILCNKTAYQEVF [SMG5]
2.92

Name the reported protein stability index value associated with the sequence RSTCVYVCALSALPAGPLPAPLLV [PLEKHN1]
2.88

Name the reported protein stability index value associated with the sequence RPQPRGLLGWGYYLIMLPFRFTYY [FAF2]
3.48

Name the reported protein stability index value associated with the sequence LHHVKTMWYPEIKHFCPRAPVILV [RHOBTB2]
2.58

* * *

Assay: protein stability index of a GFP-peptide fusion (GPS, HEK-293T) (PSI 1-6); higher = more stable
Conditions: treatment: DMSO; c terminus: a fixed tail appended
ENDPOINT NAME: protein stability index
Reply with just the number.

Name the reported protein stability index value associated with the sequence MAKKHKKIRLRCQKGIPPSLRGRA [TBC1D10A]
3.29

Name the reported protein stability index value associated with the sequence NESRRQIQSLTCEVDGLRGTNEAL [PRPH]
4.7

Name the reported protein stability index value associated with the sequence KLKGAEVTYMNMTAYNKGRLQSSF [PLD5]
2.36

Name the reported protein stability index value associated with the sequence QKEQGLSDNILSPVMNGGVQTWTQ [PDZK1]
2.84

Name the reported protein stability index value associated with the sequence LTTCTSNVAASNAKLALFYDWLFF [INTS3]
2.33

Name the reported protein stability index value associated with the sequence TSPALLQGTAEEDHVDLSLSCTLV [CDKN1A]
3.85

Name the reported protein stability index value associated with the sequence EPIILPCSHNLCQACARNILVQTP [TRIM9]
2.45

Name the reported protein stability index value associated with the sequence VESSLNVKTKKNAPSATIHQGEEE [FBXO34]
5.37

Name the reported protein stability index value associated with the sequence RFCSEIKSSKYGEGHQAWIVGIVE [SEPHS2]
2.23

Name the reported protein stability index value associated with the sequence KKNGLYLSLVLGNVNVTLLSKQAK [TMEM120A]
2.51

Name the reported protein stability index value associated with the sequence RIHERLVAGSLAGAIAQSSIYPME [SLC25A25]
2.74

Name the reported protein stability index value associated with the sequence MAKFGVHRILLLAISLTKCLESTK [MIA2]
3.27

Name the reported protein stability index value associated with the sequence PSCQETRDYAPPSRGYAYRDNGHS [RBMY1A1]
4.18

* * *

Assay: protein stability index of a GFP-peptide fusion (GPS, HEK-293T) (PSI 1-6); higher = more stable
Details: treatment: MLN4924 1 uM, 8 h; c terminus: a fixed tail appended
ENDPOINT NAME: protein stability index
Reply with just the number.

Name the reported protein stability index value associated with the sequence KVYTHPKWNTQTKARSYSYPHCTG [ZC2HC1C]
2.9

Name the reported protein stability index value associated with the sequence MDADMDYERPNVETIKCVVVGDNA [RHOBTB1]
4.83

Name the reported protein stability index value associated with the sequence GMEGLLGTLVQLLGSDDINVVTCA [CTNNB1]
2.46

Name the reported protein stability index value associated with the sequence EITEELPSSQLMPVKKQLQGASWE [ZNF396]
4.38

Name the reported protein stability index value associated with the sequence PKKSAPSAVARSNSWMGSQGPMSQ [RBMY1A1]
4.28

Name the reported protein stability index value associated with the sequence FALLADKAAQQGKQEENDVVEKLN [SNX8]
5.33

Name the reported protein stability index value associated with the sequence KIENGYPLHAPEAYFPYFKKHNVT [CDC14A]
2.32

Name the reported protein stability index value associated with the sequence NHQKDLFRRTDGRCLIWGRKPKVI [DHCR7]
2.74

Name the reported protein stability index value associated with the sequence SNFNYFYHRETEGEEQSQYMHVGS [KCNA3]
3.88

Name the reported protein stability index value associated with the sequence EPLRILSKYHRFISFTLYLIGFCM [CDS2]
1.96

Name the reported protein stability index value associated with the sequence RGNLSILAAVLVEPKLHTPMYFFL [OR3A1]
3.06

Name the reported protein stability index value associated with the sequence PALDWDSVHVPGPHAMTIQELVDY [PTPN9]
4.31

Name the reported protein stability index value associated with the sequence EGRGGRPGSTRPHRSACSSAAVRG [HAGHL]
4.58

Name the reported protein stability index value associated with the sequence RIFDIKDGKLLWEQELYNNFVYNS [WASL]
2.13

Name the reported protein stability index value associated with the sequence SSSSLGNKLQTLSPSHKGIAAPHA [ZC2HC1A]
3.97

Name the reported protein stability index value associated with the sequence EPSWECKFDHIEVRDGPFGFSPII [NETO1]
2.3

Name the reported protein stability index value associated with the sequence ALFFKNIMNIIDIVSILPYFITLG [KCNA4]
3.43

Name the reported protein stability index value associated with the sequence LCATDFKFAMYPPSMIATGSVGAA [CCND2]
2.38

Name the reported protein stability index value associated with the sequence LTRMTRVSEFLKVAEQVGIDKGDI [SNAP91]
3.48

Name the reported protein stability index value associated with the sequence FTQNQIEVLENVFRVNCYPGIDIR [HESX1]
2.14

Name the reported protein stability index value associated with the sequence AKKFRKAVTDLLGRRQRKSEKRRD [WASL]
3.89

Name the reported protein stability index value associated with the sequence QELNELFKPVVAAQKISKGADPKS [ZC3H15]
4.92

Name the reported protein stability index value associated with the sequence DRMARPSGRSGHNTRGTGSSSSGV [CSNK1G3]
5.03

Name the reported protein stability index value associated with the sequence QNHGQHLILSREASWAKPHYEFNL [LCOR]
2.51

Name the reported protein stability index value associated with the sequence IEQFSESHAIHVEEQSDQSFSSLE [IQUB]
5.14

Name the reported protein stability index value associated with the sequence PEGLDSDFLAVLSDYPSPDISPPI [SLA]
4.14

Name the reported protein stability index value associated with the sequence LRTLRDFPAEERARVLDRRGCSRV [ANKRD9]
4.06
